These data points were gathered from ChEMBL document CHEMBL1156548.

test: Effective permeability by UV-based PAMPA; format: ADME; conditions: read-out: permeability
Value Kind: Papp (×10⁻⁶ cm/s)
Write the number in ×10⁻⁶ cm/s without appending the unit.

So what does the record say about Papp for `O=[N+]([O-])c1ccccc1-c1nc2ccccc2[nH]1` ? 12

====

assay: Partition coefficient, log P of the compound; assay type: physicochemical; conditions: octanol/water
Value Kind: logP
Please respond with just the number, no unit label.

So what does the record say about logP for `O=C(c1ccc(Cl)cc1)n1c(-c2ccccc2[N+](=O)[O-])nc2ccccc21` ? 3.6

Another: `O=C(c1ccccc1)n1c(-c2ccccc2[N+](=O)[O-])nc2ccccc21` 3.1

Another: `O=C(c1ccc([N+](=O)[O-])cc1)n1c(-c2ccccc2[N+](=O)[O-])nc2ccccc21` 2.8

Another: `COc1ccc(C(=O)n2c(-c3ccccc3[N+](=O)[O-])nc3ccccc32)cc1` 3.2

Another: `O=[N+]([O-])c1ccccc1-c1nc2ccccc2[nH]1` 2.2

====

assay: Ionisation constant, pKa corresponding to weak base of […] benzimidazole ring; type: physicochemical
Value Kind: pKa
Please respond with just the number, no unit label.

So what does the record say about pKa for `O=[N+]([O-])c1ccccc1-c1nc2ccccc2[nH]1` ? 5.69

====

assay: Ionisation constant, pKa corresponding to acid proton of […] benzimidazole ring; type: physicochemical
Value Kind: pKa
Please respond with just the number, no unit label.

So what does the record say about pKa for `O=[N+]([O-])c1ccccc1-c1nc2ccccc2[nH]1` ? 11.4

====

tested on: Trypanosoma cruzi; assay: Antiparasitic activity against Trypanosoma cruzi MF epimastigotes after 7 days by nephelometry; format: functional, organism-based; conditions: 168 h
Kindly supply the reported pIC50 values for the records listed here.
// pIC50 here means minus log10 of the molar concentration (mol/L)

So what does the record say about pIC50 for `O=[N+]([O-])c1ccccc1-c1nc2ccccc2[nH]1` ? 3.93

Another: `O=C(c1ccc(Cl)cc1)n1c(-c2ccccc2[N+](=O)[O-])nc2ccccc21` 4.11

Another: `O=C(c1ccc([N+](=O)[O-])cc1)n1c(-c2ccccc2[N+](=O)[O-])nc2ccccc21` 4.10

Another: `O=C(c1ccccc1)n1c(-c2ccccc2[N+](=O)[O-])nc2ccccc21` 4.03

Another: `COc1ccc(C(=O)n2c(-c3ccccc3[N+](=O)[O-])nc3ccccc32)cc1` 4.19

====

Kindly supply the reported pKa values for the records listed here.
experiment: Ionisation constant, pKa of the compound; assay type: physicochemical
Please respond with just the number, no unit label.

So what does the record say about pKa for `O=C(c1ccccc1)n1c(-c2ccccc2[N+](=O)[O-])nc2ccccc21` ? 4.9

Another: `COc1ccc(C(=O)n2c(-c3ccccc3[N+](=O)[O-])nc3ccccc32)cc1` 4.71

Another: `O=C(c1ccc([N+](=O)[O-])cc1)n1c(-c2ccccc2[N+](=O)[O-])nc2ccccc21` 4.79

Another: `O=C(c1ccc(Cl)cc1)n1c(-c2ccccc2[N+](=O)[O-])nc2ccccc21` 4.69
